Test system: ACHN
Assay: Growth inhibition of human ACHN cells at 1 uM after 48 hrs by SRB assay; values are per cent of control
reported-property: growth, % of control at 1 µM (%)
State the answer as a number, implicitly in %.

{"columns": ["smiles-representation", "reported-property", "unit-of-measure", "observed-value"],
 "data": [
  ["CCCCCCCCCCCCCCCCS(=O)(=O)N(C)CC[N+](CC)(CC)CC", "growth, % of control at 1 µM", "%", 70.4],
  ["CCCCCCCCCCCCCCCCS(=O)(=O)N(C)CC[N+](C)(C)CC", "growth, % of control at 1 µM", "%", 77.8],
  ["C=CC[N+](CC)(CC)CCN(C)S(=O)(=O)CCCCCCCCCCCCCCCC", "growth, % of control at 1 µM", "%", 82.2],
  ["C=CC[N+](C)(C)CCN(C)S(=O)(=O)CCCCCCCCCCCCCC", "growth, % of control at 1 µM", "%", 80.3],
  ["CCCCCCCCCCCCCCS(=O)(=O)NCC(C)(C)C[N+](C)(C)C", "growth, % of control at 1 µM", "%", 79.4]
]}

Prompt: Request the reported growth, % of control at 1 µM associated with `CCCCCCCCCCCCCCS(=O)(=O)N(C)CC[N+](CC)(CC)CC`
Completion: 68.7

Prompt: Request the reported growth, % of control at 1 µM associated with `CCCCCCCCCCCCCCS(=O)(=O)N(C)CC[N+](C)(C)C`
Completion: 71.6

Prompt: Request the reported growth, % of control at 1 µM associated with `CCCCCCCCCCCCCCCCS(=O)(=O)N(C)CC[N+](C)(C)C`
Completion: 69.7

Prompt: Request the reported growth, % of control at 1 µM associated with `CCCCCCCCCCCCCCS(=O)(=O)NCC(C)(C)C[N+](C)(C)CC`
Completion: 68.2

###

Tested on: HCT-15
Test: Growth of human HCT15 cells at 3 uM after 48 hrs by SRB assay
Conditions: HCT-15, 48 h
reported-property: growth, % of control at 3 µM (%)
State the answer as a number, implicitly in %.

Use these answered entries as a reference point.
{"columns": ["smiles-representation", "test-system", "growth, % of control at 3 µM (%)"],
 "data": [
  ["CCCCCCCCCCCCCCCCS(=O)(=O)NCCC[N+](C)(C)CC", "HCT-15", 35.3],
  ["CCCCCCCCCCCCCCCCS(=O)(=O)NCC(C)(C)C[N+](C)(C)C", "HCT-15", 17.6],
  ["CCCCCCCCCCCCCCS(=O)(=O)N(C)CC[N+](C)(CC)CC", "HCT-15", 60.5]
]}

Kindly review the next compound as well.
Prompt: Request the reported growth, % of control at 3 µM associated with `CCCCCCCCCCCCCCS(=O)(=O)N(C)CCC[N+](C)(C)CC`
Completion: 42.2

###

System: HCT-15
Test: Growth of human HCT15 cells at 3 uM after 48 hrs by SRB assay
Conditions: HCT-15, 48 h
Each entry below carries its reported growth, % of control at 3 µM.
State the answer as a number, implicitly in %.

{"columns": ["smiles-representation", "growth, % of control at 3 µM [%]"],
 "data": [
  ["CCCCCCCCCCCCCCS(=O)(=O)N(C)CC[N+](C)(C)CC", 41.1],
  ["CCCCCCCCCCCCCCCCS(=O)(=O)N(C)CC[N+](C)(C)CC", 35.2]
]}

Prompt: Request the reported growth, % of control at 3 µM associated with `CCCCCCCCCCCCCCCCS(=O)(=O)NCC(C)(C)C[N+](C)(C)CC`
Completion: 40.2

Prompt: Request the reported growth, % of control at 3 µM associated with `CCCCCCCCCCCCCCS(=O)(=O)NCC(C)(C)C[N+](C)(C)C`
Completion: 48.2

Prompt: Request the reported growth, % of control at 3 µM associated with `CCCCCCCCCCCCCCS(=O)(=O)NCCC[N+](C)(C)C`
Completion: 31.5

Prompt: Request the reported growth, % of control at 3 µM associated with `CCCCCCCCCCCCCCCCS(=O)(=O)N(C)CC[N+](C)(CC)CC`
Completion: 42.7

Prompt: Request the reported growth, % of control at 3 µM associated with `CCCCCCCCCCCCCCCCS(=O)(=O)N(C)CC[N+](C)(C)C`
Completion: 22.4
